Listed next: entries and their corresponding pEC50.
# System: CEM-TK(-)
# ASSAY_METHOD_TEXT: Concentration required to protect CEM/TK cells against the cytopathicity of HIV-2 by 50%
# Assay type: functional, cell-based
# ASSAY_SETUP: Homo sapiens
pEC50: −log10 of the molar value.

Observe how each entry below is paired with its result.
CCCCCCCCCCCCCCCCOP(=O)(O)OCC1OC(n2cc(C)c(=O)[nH]c2=O)CC1N=[N+]=[N-] (stereo not drawn) :: < 4.30
Cc1cn([C@H]2C[C@H](N=[N+]=[N-])[C@@H](CO)O2)c(=O)[nH]c1=O [ZIDOVUDINE] :: < 4.00

Now examine the next entry.
Q: API: value(readout= pEC50, system= CEM-TK(-), query= CCCCCCCCCCCCCCCCOCC(COP(=O)(O)OCC1OC(n2cc(C)c(=O)[nH]c2=O)CC1N=[N+]=[N-])OC (stereo not drawn) )
A: < 5.00
